Listed compounds paired with reported composite z-score
# METHOD_DESCRIPTION: small-molecule microarray binders of probe aCHRDL2, primary screen, biochemical, biotinylated probe, 635/667 nm fluorescence (AID 1100)
# EXPERIMENTAL_SETUP: higher = more signal

COMPOUND	composite z-score
C=CC[C@]1(C(=O)OC)N=C(c2ccc(OCCCO)cc2)O[C@H]1c1ccccc1CN=[N+]=[N-]	1.44
COC(=O)[C@@]1(Cc2ccccc2CN=[N+]=[N-])N=C(c2ccc(OCCCO)cc2)O[C@H]1c1ccccc1N=[N+]=[N-]	0.973
COc1ccc(CCN2C(=O)[C@@]3(c4ccc([N+](=O)[O-])cc4)CC(=O)N(CC45CC6CC(CC(C6)C4)C5)[C@@H]3c3ccc(CO)cc32)cc1	0.761
CC(C)N1CC=CC23O[C@@H]4/C=C\CCCOC(=O)C4[C@H]2C(=O)N(CCO)[C@@H]3C1=O (some centres not stated)	0.677
CCCC/C=C/[C@H]([C@@H](O)Cc1ccccc1)N(CC#Cc1ccccc1)Cc1ccccc1Br	1.26
NC(=O)NCC#Cc1ccc2c(c1)[C@]1(C(=O)N2)[C@H](c2ccccc2OCCO)N2[C@H](c3ccccc3)[C@H](c3ccccc3)OC(=O)[C@H]2[C@@H]1C(=O)N1CCN(c2ncccn2)CC1	0.542
[N-]=[N+]=Nc1ccccc1C[C@@]1(C(=O)N2CCOCC2)N=C(c2ccc(OCCCO)cc2)O[C@@H]1c1ccccc1N=[N+]=[N-]	1.13

###

# METHOD_DESCRIPTION: CREB reporter modulators without forskolin, primary screen, cell-based, PC12, CRE-LacZ reporter, unstimulated (AID 1145)
# EXPERIMENTAL_SETUP: no forskolin, luminescence, 4.5 h, called active from +8 up or from −8 down
The source made the active and inactive calls.
Labels: active, inactive

COMPOUND	GROUP_LABEL
O=C1NC(=O)C2C1C=CC(C(O)C=Cc1ccc([N+](=O)[O-])cc1)N2Nc1ccccn1 (stereo not given)	inactive
CCCNC(=O)[C@@]1(Sc2ccc(C)cc2)CC(=O)N(Cc2ccccc2Cl)[C@@H]1c1ccc(CO)cc1	inactive
CCCC=C(CCC)[C@@H](NC(=O)c1ccc(C(F)(F)F)cc1)c1ccccc1	inactive
CC(C)[Si]1(C(C)C)OCc2cc(C3CC3)nc(-c3ccccc3)c21	inactive
C[C@]1(C(=O)NCCN2CCOCC2)c2ccccc2C(=O)N(Cc2ccccc2)[C@H]1c1ccc(CO)cc1	inactive
CO[C@H]1O[C@H](CO)[C@@H](OC(=O)Nc2ccc(Oc3ccccc3)cc2)[C@H](OC(=O)Nc2ccccc2-c2ccccc2)[C@H]1OC(=O)Nc1ccccc1-c1ccccc1	inactive
CO[C@@H]1COC(=O)[C@H](COCc2ccccc2)NC(=O)CC=C[C@@H](C)[C@H](OC)COC(=O)[C@H](COCc2ccccc2)NC(=O)CC=C[C@H]1C	inactive
COC(=O)[C@@]1(Cc2ccccc2)[C@H]2c3cc(C(=O)N4CCCC4)n(CCN4CNCC4=O)c3C[C@H]2CN1C(=O)c1ccccc1	inactive
CCCC=C(CCC)[C@@H](NS(=O)(=O)c1cccc(C(F)(F)F)c1)c1ccc(C(=O)OC)cc1	inactive
COC(=O)C(CC#Cc1ccc2c(c1)[C@]1(C(=O)N2)[C@H](C(=O)N2CCCCCCC2)[C@H]2C(=O)O[C@H](c3ccccc3)[C@H](c3ccccc3)N2[C@@H]1c1ccc(O)cc1)C(=O)OC	inactive
C=CCN1C(=O)[C@@]2(O[C@@H](CCn3cc([C@H](O)c4ccccc4)nn3)[C@H]([Si](C)(C)c3ccc(OC)cc3)[C@H]2C)c2cc(N3CCOC3=O)ccc21	active
CC(C)(C)OC(=O)CC[C@]1(C(=O)N2CCCCC2)N=C(c2ccc(OCCCO)cc2)O[C@H]1c1ccccc1	inactive
COc1ccc(C(O)C2C=CC3C(=O)N(C)C(=O)C3N2N2CCCCC2)cc1OCc1ccccc1 (stereo not given)	inactive
C=CC[C@]1(C(=O)O)N=C(c2ccc(OCCCO)cc2)O[C@H]1c1ccccc1N=[N+]=[N-]	inactive
O=C1C2C=CC(C(O)c3ccccc3)N(n3cnnc3)C2C(=O)N1Cc1ccccc1 (stereo not given)	inactive

###

# METHOD_DESCRIPTION: small-molecule microarray binders of probe aShh, primary screen, biochemical, biotinylated probe, 635/667 nm fluorescence (AID 1114);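 also: probe is biotin-labelled aShh protein from a stem cell growth factor screen; measures binding of labelled protein to compounds printed on the slide; score merges feature fluorescence at 667 nm with signal-to-noise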
# EXPERIMENTAL_SETUP: higher = more signal
Label yes when composite z-score >= -0.06; otherwise no.

COMPOUND_STRUCTURE_STRING	GROUP_LABEL
COC(=O)C1=C(C)N(Cc2ccccc2)c2c(C(=O)OC)c(C(=O)OC)c(C(=O)OC)c(=O)n2[C@@H]1c1ccccc1	no
COc1cccc([C@@H]2[C@@H](C)CC[C@H]3C(=O)N(C)[C@@H](C(C)C)C(=O)N23)c1	yes
CCCC=C(CCC)[C@@H](NS(=O)(=O)c1cccc(C(F)(F)F)c1)c1ccc(C(=O)OC)cc1	yes
C=C(CCCC)/C(=C/C[C@H](OC(=O)c1ccncc1)c1cccc(OCCO)c1)c1cc(C(=O)OC)ccc1OC	yes
COCCOC(=O)N1C(=O)[C@@]2(c3ccccc31)[C@H](C(=O)N1CCc3cc(OC)c(OC)cc3C1)[C@H]1C(=O)O[C@H](c3ccccc3)[C@H](c3ccccc3)N1[C@@H]2c1ccccc1OCCO	yes
COc1cccc([C@H]2N[C@H](C(=O)O)CC[C@@H]2C)c1	no
CO[C@H]1COC(=O)[C@@H](OCc2ccccc2)C=C[C@H](C)[C@@H](OC)COC(=O)[C@H](OCc2ccccc2)C=C[C@@H]1C	no
CO[C@H]1COC(=O)CC=C[C@H](C)[C@@H](OC)COC(=O)CC=C[C@@H]1C	yes
CC(C)(C)OC(=O)CC[C@@]1(C(=O)NCc2ccccc2)N=C(c2ccc(OCCCO)cc2)O[C@@H]1c1ccccc1	yes
Cc1ccc([C@@H]2CC=C(C(=O)O)[C@H](c3ccccc3)N2S(=O)(=O)c2ccc(C)cc2)cc1	yes
CN(C)CCCC[C@@H]1NC(=O)[C@@H]2C[C@H](C(=O)O)[C@H](c3ccc(O)cc3)N2C1=O	no
COC(=O)C(CC#Cc1ccc2c(c1)[C@]1(C(=O)N2)[C@H](C(=O)N2CCCCCCC2)[C@H]2C(=O)O[C@H](c3ccccc3)[C@H](c3ccccc3)N2[C@@H]1c1ccc(O)cc1)C(=O)OC	no
CCN1C(C)=C(C(=O)OC)[C@@H](c2ccccc2)N2C(=O)[C@](O)(C(=O)OC)[C@@H](c3ccccc3)C(C(C)=O)=C12	no
CO[C@]12C=C(Br)[C@@H](C[C@@H]1c1ccccc1)[C@@]1(CO1)C2=O	yes
Cc1ccc(N2C(=O)c3ccccc3[C@@H](C(=O)NCC(F)(F)F)[C@@H]2c2ccc(CO)cc2)nc1	no
C#CCCCON=C1C[C@@H](O)[C@@H](O)[C@@H]2[C@@H]3C(=O)N(Cc4ccc5c(c4)OCO5)C(=O)[C@@H]3CC[C@H]12	yes

###

# METHOD_DESCRIPTION: basal S. cerevisiae growth modulation, no modifier, primary screen, OD600, strain BY4716, 24 h, basal condition (AID 1173)
# EXPERIMENTAL_SETUP: OD600, 24 h, higher = more signal, called active from +8 up or from −8 down
As shown below, each of these molecules has a reported z-score value.

COMPOUND_STRUCTURE_STRING	z-score
Cc1ccc(S[C@]2(C(=O)NCCCN(C)C)CC(=O)N(Cc3ccccc3)[C@@H]2c2ccc(CO)cc2I)cc1	-4.78
CO[C@@H]1COC(=O)CC=C[C@H](C)COC(=O)[C@H](Cc2ccccc2)NC(=O)CC=C[C@H]1C	-1.95
COc1ccc(C(=O)Nc2ccc(CN3C(=O)[C@]4(O[C@H](CCn5cc(CCO)nn5)[C@@H]([Si](C)(C)c5ccc(OC)cc5)[C@@H]4C)c4ccccc43)cc2)cc1	-5.51
C=CCc1cccc([C@H]2N[C@H](C(=O)O)CC[C@@H]2C)c1	0.182

###

composite z-score values by entry
# METHOD_DESCRIPTION: binders of probe aFGF2 on microarray, primary screen, stem cell growth factor project, biochemical, small-molecule microarray, fluorescence 635/667 (AID 1067);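 also: measures binding of biotinylated aFGF2 protein to printed compounds on slides; z-score merges feature fluorescence and signal-to-noise across triplicate slides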
# EXPERIMENTAL_SETUP: higher = more signal
MEASURE_NAME: composite z-score

COMPOUND	ENDPOINT_VALUE
C=CCC(OC(C)=O)[C@@H]1[C@@H](N(Cc2cc3ccccc3o2)C(=O)c2ccc(C)cc2)c2cc(OCCCO)ccc2N1C(=O)c1ccc2ccccc2n1 (stereo partly drawn)	-0.187
CO[C@@H]1COC(=O)[C@H](C)NC(=O)CC=C[C@@H](C)[C@H](OC)COC(=O)[C@H](C)NC(=O)CC=C[C@H]1C	-0.112
O=C1OCCC/C=C\[C@H]2OC34C=CCN(CCN5CCOCC5)C(=O)[C@H]3N(CCCCCO)C(=O)[C@@H]4C12 (stereo partly drawn)	-0.174
O=C1c2ccccc2[C@](Cc2ccccc2I)(C(=O)NCC(F)(F)F)[C@H](c2ccc(CO)cc2)N1Cc1ccccc1C(F)(F)F	-0.0856
O=C(NCC(O)CO)[C@]1(Cc2ccccc2)N=C(c2ccc(OCCCO)cc2)O[C@@H]1c1ccccc1 (stereo partly drawn)	-0.104
COCCOC(=O)N1C(=O)[C@@]2(c3cc(C#CCCO)ccc31)[C@H](C(=O)N1CCCCCCC1)[C@H]1C(=O)O[C@H](c3ccccc3)[C@H](c3ccccc3)N1[C@@H]2c1ccc(O)cc1	0.188
CCOC(=O)C[C@H]1[C@H](OC(=O)c2cc3ccccc3oc2=O)[C@@H](NC(=O)C2CCCCC2)c2cc(OCCCO)ccc2N1C(=O)c1ccc2ccccc2n1	-0.179
O=C1O[C@@H](c2ccccc2)[C@@H](c2ccccc2)N2[C@@H](c3ccc(O)cc3)[C@]3(C(=O)Nc4ccccc43)[C@@H](C(=O)N3CCN(c4ncccn4)CC3)[C@H]12	0.142
CC(C)[Si]1(C(C)C)OCc2cc(C3CC3)nc(-c3ccccc3)c21	-0.119
CO[C@H]1COC(=O)CC=C[C@H](C)[C@@H](OC)COC(=O)CC=C[C@@H]1C	-0.0775
CCC(=O)[C@]12O[C@@]3([C@@H]4C(=O)OCC[C@@H]41)N(CC)C(C)=C(C(=O)OC)[C@@H](c1ccccc1)N3C2=O	-0.116
CC(C)(C)OC(=O)CC[C@]1(C(=O)N2CCCCC2)N=C(c2ccc(OCCCO)cc2)O[C@H]1c1ccccc1	0.136
C=C(COC)C(=O)CC[C@H](OC(=O)c1ccccc1-c1ccccc1C(=O)O)c1cccc(OCCO)c1	-0.103
CC(C)C[C@@H]1NC(=O)[C@H](CC(C)C)NC(=O)[C@@]23C(=O)N[C@@H](Cc4ccccc4)C2[C@H](C)[C@@]2(C)O[C@H]2C3/C=C/CC/C=C/CNC1=O (stereo partly drawn)	-0.0805
[N-]=[N+]=NCc1ccccc1C[C@]1(C(=O)N2CCCCC2)N=C(c2ccc(OCCCO)cc2)O[C@H]1c1ccccc1CN=[N+]=[N-]	0.0342
CO[C@H]1COC(=O)[C@@H](OCc2ccccc2)C=C[C@H](C)[C@@H](OC)COC(=O)[C@H](OCc2ccccc2)C=C[C@@H]1C	-0.136
C=CCOC(=O)[C@@H]1[C@H]2C(=O)O[C@H](c3ccccc3)[C@H](c3ccccc3)N2[C@H](c2ccc(OCCOC(=O)[C@H]3C[C@H]4C(=O)N5CCC[C@H]5C(=O)N4[C@H]3c3ccc(O)cc3)cc2)[C@@]12C(=O)Nc1ccccc12	-0.0169
CO[C@H]1COC(=O)[C@H](C)NC(=O)CC=C[C@@H](C)[C@H](NS(=O)(=O)c2ccc(C)cc2)COC(=O)[C@@H](OCc2ccccc2)C=C[C@@H]1C	-0.183
CC[C@H]1C2=C3C(CC[C@H]4C(OC)OC[C@](C)([C@@H]34)N(C(=O)OC(C)(C)C)C2)C(CO)C1CO (stereo partly drawn)	0.181
Cc1ccc(S[C@]2(C(=O)NC(C)C)CC(=O)N(C3Cc4ccccc4C3)[C@@H]2c2ccc(CO)cc2)cc1	-0.148
C=CCc1cccc([C@@H]2[C@@H](C)CC[C@H]3C(=O)N4[C@H](c5cccc(CC=C)c5)[C@@H](C)CC[C@H]4C(=O)N23)c1	-0.0677
C=CC[C@@]12N=C(c3ccc(OCCCO)cc3)O[C@@H]1c1ccccc1CN(Cc1ccccc1)C2=O	-0.0043
CO[C@H]1COC(=O)CC=C[C@H](C)[C@@H](OC)COC(=O)[C@H](Cc2ccccc2)NC(=O)CC=C[C@@H]1C	-0.167
N#Cc1ccc(NN2C(C(O)c3ccc(I)cc3)C=CC3C(=O)N(c4ccccc4)C(=O)C32)cc1 (stereo not drawn)	0.105
C=CCC(OC(C)=O)[C@@H]1[C@@H](N(Cc2cccc3ccccc23)C(=O)Cc2ccc(F)cc2)c2cc(OCCCO)ccc2N1C(=O)Cc1ccc2ccccc2c1 (stereo partly drawn)	-0.0503
C=C(COC)/C(=C/C[C@@H](OC(=O)c1ccncc1)c1ccc(OCCO)cc1)c1cc(C(=O)OC)ccc1OC	-0.0775
CO[C@H]1COC(=O)[C@@H](Cc2ccccc2)NC(=O)[C@@H](C)COC(=O)CC=C[C@@H]1C	-0.142
CCCC=C(CCC)[C@@H](NC(=O)c1ccccc1)c1ccccc1	-0.0392
